Assay: Ocular irritation screening study in the rabbit (Draize score, soaked soft lenses)
Type: in vivo
Conditions: rabbit, in vivo, topical or ocular; 4 ppm formulation; rabbits; read-out: safety margin relative to initial onset of abnormal ocular health
quantity: selectivity ratio
Reply briefly: the number, and no unit.

Ask | Specify reported selectivity ratio for the molecule shown: CCCCC(CC)CNC(=N)NC(=N)NCCCCCCNC(=N)NC(=N)NCC(CC)CCCC.Cl.Cl (stereo not shown) [Alexidine.2HCl, dihydrochloride]
Reply | 2.5
